The values you see were collected from patent US20220402985A1.

target: ErbB4 on neonatal rat cardiomyocytes (rat) (UniProt Q62956); assay: cell-based or functional assay
Sequence (Q62956 26-1308): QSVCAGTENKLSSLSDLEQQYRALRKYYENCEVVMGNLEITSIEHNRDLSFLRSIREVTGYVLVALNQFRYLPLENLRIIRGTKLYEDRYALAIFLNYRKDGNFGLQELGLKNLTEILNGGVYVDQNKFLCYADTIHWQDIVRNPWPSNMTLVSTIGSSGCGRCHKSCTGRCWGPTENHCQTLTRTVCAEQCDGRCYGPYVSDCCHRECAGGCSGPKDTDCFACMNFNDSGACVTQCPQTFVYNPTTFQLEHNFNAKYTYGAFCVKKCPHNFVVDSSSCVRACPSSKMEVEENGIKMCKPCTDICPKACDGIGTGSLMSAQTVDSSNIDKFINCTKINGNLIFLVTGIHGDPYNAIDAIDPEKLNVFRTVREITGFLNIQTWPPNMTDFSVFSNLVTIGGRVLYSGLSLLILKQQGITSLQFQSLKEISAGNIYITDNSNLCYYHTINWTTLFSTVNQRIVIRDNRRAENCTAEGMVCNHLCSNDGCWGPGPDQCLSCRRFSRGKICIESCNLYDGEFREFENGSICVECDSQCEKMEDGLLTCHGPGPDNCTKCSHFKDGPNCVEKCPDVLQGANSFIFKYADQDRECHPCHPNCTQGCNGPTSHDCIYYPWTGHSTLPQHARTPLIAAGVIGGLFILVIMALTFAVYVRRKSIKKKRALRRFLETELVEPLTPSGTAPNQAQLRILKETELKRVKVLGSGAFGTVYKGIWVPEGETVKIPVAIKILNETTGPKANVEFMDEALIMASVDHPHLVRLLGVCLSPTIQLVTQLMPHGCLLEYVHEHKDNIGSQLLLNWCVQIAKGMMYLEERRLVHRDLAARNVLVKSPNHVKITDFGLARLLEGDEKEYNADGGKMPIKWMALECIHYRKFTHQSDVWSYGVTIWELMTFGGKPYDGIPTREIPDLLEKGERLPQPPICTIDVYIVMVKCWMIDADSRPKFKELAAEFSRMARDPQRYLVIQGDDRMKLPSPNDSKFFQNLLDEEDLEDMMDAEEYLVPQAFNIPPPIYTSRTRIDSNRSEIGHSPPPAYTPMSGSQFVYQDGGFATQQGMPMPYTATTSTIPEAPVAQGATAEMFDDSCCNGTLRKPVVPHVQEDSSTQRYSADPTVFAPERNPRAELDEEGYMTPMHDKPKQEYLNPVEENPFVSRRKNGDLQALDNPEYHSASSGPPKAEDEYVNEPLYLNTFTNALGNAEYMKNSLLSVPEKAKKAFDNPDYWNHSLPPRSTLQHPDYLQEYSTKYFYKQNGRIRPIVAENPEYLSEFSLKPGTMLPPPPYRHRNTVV
experimental.readout: Selectivity SC/CM
Give bare numbers.

Quick one: Selectivity SC/CM for huNRG1(S177-Q237)(NRGE1I)::GG::huFcSEFL2 (Pb) (Fc fusion) SHLVKCGENDKSFCVNGGECFMIEGPSNPSRYLCKCPNEFTGDRCQDDFMASFYKAEELYQGGDKTHTCPPCPAPELLGGPSVFLFPPKPKDTLMISRTPEVTCVVVDVSHEDPEVKFNWYVDGVEVHNAKTKPCEEQYGSTYRCVSVLTVLHQDWLNGKEYKCKVSNKALPAPIEKTISKAKGQPREPQVYTLPPSREEMTKNQVSLTCLVKGFYPSDIAVEWESNGQPENNYKTTPPVLDSDGSFFLYSKLTVDKSRWQQGNVFSCSVMHEALHNHYTQKSLSLSPGK ?
437
